B1: HDV Ribozyme (parent)
chain: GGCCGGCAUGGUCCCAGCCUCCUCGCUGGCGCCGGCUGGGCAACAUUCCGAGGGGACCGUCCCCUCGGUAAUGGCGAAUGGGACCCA

- Variants of: B1
- measurement notes: self-cleavage, relative activity (ratio to wild type); higher = more cleavage; co-transcriptional
Classification by self-cleavage | ranges: range A: < 0.1; range B: ≥ 0.1 and < 0.6; range C: ≥ 0.6

# bin label for GGCCGGCAUGGUCCCAGCCUCCUCGCUGGAGCCGGCUGGGCAACAUUCCGAGGGGACCGUCUCCUCGGUAAUGGCGAAUGGGACCCA [C30A C62U]
range B

Now try GGCCGGGAUGGUCCCAGCCGCCUCGCUGGCGCCGGCUGGGCAACAUUCCGAGGGGACCGUCCCCUCGGUAAUGGCGAAUGGGACCCA [C7G U20G] .
range B

Now try GGCCGGCAUGGUCCCAGCCUCCUCGCUGCCGCCGGCUGGGCAACAUUCCGAGGGGCCCGUCCCCUCGGUAAUGGCGAAUGGGACCCA [G29C A56C] .
range B

Now try GGCCGGCAUGGUCCCAGCCUCCUCGCUGGCGCCGGCUGGGCAACAUUCCGAGGGGACCGUCCCCUCGUAAAUGGCGAAUGGGACCCA [G68U U69A] .
range C

Now try UGCCGGCACGGUCCCAGCCUCCUCGCUGGCGCCGGCUGGGCAACAUUCCGAGGGGACCGUCCCCUCGGUAAUGGCGAAUGGGACCCA [G1U U9C] .
range B

Now try GGCCGGCAUGGUUCCAGCCUCCUCGCUAGCGCCGGCUGGGCAACAUUCCGAGGGGACCGUCCCCUCGGUAAUGGCGAAUGGGACCCA [C13U G28A] .
range B

Now try GGCCGGCAUGGUCCCAGCCUCCUCGCUGGCGCCGGCUGAGCAACAUUCCGAGAGGACCGUCCCCUCGGUAAUGGCGAAUGGGACCCA [G39A G53A] .
range C

Now try GGCCGGCAUGGUCCCAGCCUCCUCGCUGGCGCCGGCUGGGCAACAUUCCGAGGGGACCGUCCCCUCGGUAAUGGCGGAUGGGAUCCA [A77G C84U] .
range C

Now try GGCCGGCAUGGUCCCAGCCUCCUCGCUGGCGCCGGCUGGGCAACAUUCCGAGGGGACCGUCCCUUCGCUAAUGGCGAAUGGGACCCA [C64U G68C] .
range B

Now try GGACGGCAUGGUCCCAGCCUCCUCGCUGGCGCCGGCUGGGCAACCUUCCGAGGGGACCGUCCCCUCGGUAAUGGCGAAUGGGACCCA [C3A A45C] .
range A

Now try GGCCGGCAUGGUCCCAGCCUCCUCGCUGGCGCCGGCUGGGCCACAUUCCGAGGGGACCGUCCCCUCGGUAAUGGCGAUUGGGACCCA [A42C A78U] .
range A

Now try GGCCGGCAUGGUGCCAGCCUCCUCGCUGGCGACGGCUGGGCAACAUUCCGAGGGGACCGUCCCCUCGGUAAUGGCGAAUGGGACCCA [C13G C32A] .
range A

Now try GGCCGGAAUGGUCCCAGCCGCCUCGCUGGCGCCGGCUGGGCAACAUUCCGAGGGGACCGUCCCCUCGGUAAUGGCGAAUGGGACCCA [C7A U20G] .
range B

Now try GACCGGCAUGGUCCCAGCCUCCUCGCUGGCGCCGGCUGGGCAACAUUCAGAGGGGACCGUCCCCUCGGUAAUGGCGAAUGGGACCCA [G2A C49A] .
range B

Now try GGCCGGCAUGGUCCCAGCCUCCACGCUGGCGCCGGCUGGGCAACAUUUCGAGGGGACCGUCCCCUCGGUAAUGGCGAAUGGGACCCA [U23A C48U] .
range C

Now try GGCCGGCAUGGUCCCAGCCUCCUCGCUGGCGCCGGCUGGGCAACAUUCCGAGGGGACGGUCCCCCCGGUAAUGGCGAAUGGGACCCA [C58G U65C] .
range C

Now try GACCGGCAUGGUCCCAGCCUCCUCGCUGGCGCCGGCUGGGCAACAUUCCGAGGGGACCGUCCCCUGGGUAAUGGCGAAUGGGACCCA [G2A C66G] .
range B

Now try GGCCGGCAUGGUCCCAGCCUGCUCGCUGGCGCCGGCUGGGCAACAUUCCGAGGGGACCGACCCCUCGGUAAUGGCGAAUGGGACCCA [C21G U60A] .
range B

Now try GGCCGGCAUGGUCACAGCCUCCUCGCUGGCGCCGGCUGGGCAACAUUCCGAGGGGACCGUCCCCUCGGUAAUGGCAAAUGGGACCCA [C14A G76A] .
range C

Now try GGCCGGCAUGGUCCCAGCCUCCUCGCUGGCGCCGGGUGGGCAACAUUCCGAGGGGACCGUCCCCUCGGUCAUGGCGAAUGGGACCCA [C36G A70C] .
range A
